# ASSAYED SYSTEM: T1, human Sortilin expressed on 293 / HEK293T cells (human, UniProt Q99523 78-830)
# T1 construct: full-length recombinant human Sortilin; also called hSort; SORT1
# ASSAY DETAILS: FACS, 293 cells;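 further: antibodies at 10 µg/ml bound to cells for 1 h on ice, detected with PE-labelled anti-human secondary antibody by flow cytometry, reported as mean fluorescence intensity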
ATTRIBUTE MEASURED: MFI
// no unit string in output, number only

Example entries and their recorded answers appear below.
Request: Need MFI, item S-51 (antibody, V domains shown, IgG) VH: QVQLVESGGGVVQPGRSLRLSCAASGFTFSSYGMHWVRQAPGKGLEWVAVISYDGSNKYYADSVKGRFTISRDNSKNTLYLQMNSLRAEDTAVYYCAKGLEYYDSSRLYYPYYYYMDVWGKGTTVTVSS VL: EIVLTQSPATLSLSPGERATLSCRASQSVSSYLAWYQQKPGQAPRLLIYDASKRATGIPARFSGSGSGTDFTLTISSLEPEDFAVYYCQQRSNYPITFGGGTKVEIK
Result: 12200

Request: Need MFI, item S-74 (antibody, V domains shown, IgG) VH: QVQLQESGPGLVKPSQTLSLTCTVSGGSISSGTYYWSWIRQHPGKGLEWIGYIYYSGSTYYNPSLKSRVTISVDTSKNQFSLKLSSVTAADTAVYYCARGVGRYRVADYWGQGTLVTVSS VL: EIVMTQSPATLSLSPGERATLSCRASQSVSSYLAWYQQKPGQAPRLLIYDSSNRATGIPARFSGSGSGTDFTLTISSLEPEDFAVYYCQQETNMPPITFGGGTKVEIK
Result: 9210

More entries:
Request: Need MFI, item S-48 (antibody, V domains shown, IgG) VH: QVQLVESGGGVVQPGRSLRLSCAASGFTFSSYGMHWVRQAPGKGLEWVAVISYDGSNKYYADSVKGRFTISRDNSKNTLYLQMNSLRAEDTAVYYCARESGDRATLVYYYYYGMDVWGQGTTVTVSS VL: EIVMTQSPATLSVSPGERATLSCRASQSVSSNLAWYQQKPGQAPRLLIYSASTRATGIPARFSGSGSGTEFTLTISSLQSEDFAVYYCQQYNSWPITFGGGTKVEIK
Result: 8140
